Where these numbers come from: ChEMBL document CHEMBL1833803

# Target Of Assay: CYP3A4 (Homo sapiens)
# Sequence (P08684 whole entry): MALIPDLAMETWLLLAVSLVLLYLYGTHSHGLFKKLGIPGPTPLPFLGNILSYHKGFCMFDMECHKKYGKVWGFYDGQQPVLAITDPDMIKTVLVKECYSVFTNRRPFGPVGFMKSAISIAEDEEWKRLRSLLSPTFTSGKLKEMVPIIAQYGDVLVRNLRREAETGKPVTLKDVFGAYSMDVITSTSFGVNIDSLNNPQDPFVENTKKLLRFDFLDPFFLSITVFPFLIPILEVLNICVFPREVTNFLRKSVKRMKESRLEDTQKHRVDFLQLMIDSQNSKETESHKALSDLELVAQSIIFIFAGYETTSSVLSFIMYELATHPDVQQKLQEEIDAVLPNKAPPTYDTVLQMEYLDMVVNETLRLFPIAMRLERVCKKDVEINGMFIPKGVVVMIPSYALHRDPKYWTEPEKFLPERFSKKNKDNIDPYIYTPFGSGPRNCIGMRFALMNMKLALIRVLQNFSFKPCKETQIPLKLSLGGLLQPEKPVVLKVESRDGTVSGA
# Protocol Notes: Inhibition of CYP3A4 at 10 uM
# Format: ADME
Assay Readout: inhibition at 10 µM (%)
Reply numerically in %, unit not repeated.

Sample records with inhibition at 10 µM:
>>> df
                               query_smiles  observed
0  Cn1cc(-c2ccc3c(c2)[nH]c2c(C(N)=O)cnc(N[C@H](C4CC4)C(F)(F)F)c23)cn1        48
1  Cn1cc(-c2ccc3c(c2)[nH]c2c(C(N)=O)cnc(NC4CCCCC4)c23)cn1        75
2  NC(=O)c1cnc(N[C@H](C2CC2)C(F)(F)F)c2c1[nH]c1cc(-c3cnc(N)nc3)ccc12        30
3  Cn1cc(-c2ccc3c(c2)[nH]c2c(C(N)=O)cnc(NC(C4CC4)C4CC4)c23)cn1        62

As a next step, examine the molecule that follows.
Which inhibition at 10 µM is reported for this molecule? NC(=O)c1cnc(NC(C2CC2)C2CC2)c2c1[nH]c1cc(-c3cnc(N)cn3)ccc12 65

* * *

# Protocol Notes: Plasma clearance in rat at 1 mg/kg, iv and 2 mg/kg, po
# Type: ADME, organism-based
Assay Readout: clearance (mL/min/kg)
Kindly answer with a numeric value in mL/min/kg, unit omitted.

For O=c1[nH]ccc2c1c1cc(F)ccc1n2-c1ccccc1 , what is its reported clearance? 13

* * *

# Protocol Notes: Plasma clearance in dog at 0.5 mg/kg, iv
# Assay type: ADME, organism-based, Canis lupus familiaris
# Parameters: dose 0.5 mg/kg, route intravenous
Assay Readout: clearance
Please don't drop the unit; write it after the number.

Entry under review: NC(=O)c1cnc(N[C@H](C2CC2)C(F)(F)F)c2c1[nH]c1cc(-c3cnc(N)nc3)ccc12 . Reported clearance? 18 mL/min/kg

* * *

# Target Of Assay: Cytochrome P450 3A4 (Homo sapiens)
# Sequence (P08684 whole entry): as the sequence (P08684 whole entry) above
Assay Readout: IC50

What value of IC50 has been reported for the following compound? NC(=O)c1cnc(N[C@H](C2CC2)C(F)(F)F)c2c1[nH]c1cc(-c3cnc(N)nc3)ccc12 > 75 µM

* * *

# Target Of Assay: Cytochrome P450 2C9 (Homo sapiens, UniProt P11712)
# Sequence (P11712 whole entry): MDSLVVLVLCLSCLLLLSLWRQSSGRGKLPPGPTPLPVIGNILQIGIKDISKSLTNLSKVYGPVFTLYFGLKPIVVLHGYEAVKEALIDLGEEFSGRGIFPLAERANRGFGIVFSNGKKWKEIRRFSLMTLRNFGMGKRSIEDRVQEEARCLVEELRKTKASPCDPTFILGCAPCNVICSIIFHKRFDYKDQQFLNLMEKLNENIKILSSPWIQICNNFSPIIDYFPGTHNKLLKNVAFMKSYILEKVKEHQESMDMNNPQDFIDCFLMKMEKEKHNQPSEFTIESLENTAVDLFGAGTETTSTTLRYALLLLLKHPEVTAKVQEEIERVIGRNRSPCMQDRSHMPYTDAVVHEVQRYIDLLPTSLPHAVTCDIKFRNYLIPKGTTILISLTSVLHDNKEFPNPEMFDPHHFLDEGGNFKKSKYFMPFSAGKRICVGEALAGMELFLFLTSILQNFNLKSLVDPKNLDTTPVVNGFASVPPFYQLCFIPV
pIC50: −log10 of the molar value.
Assay Readout: pIC50

Requested read-out: pIC50. Entry: NC(=O)c1cnc(N[C@H](C2CC2)C(F)(F)F)c2c1[nH]c1cc(-c3cnc(N)nc3)ccc12 < 4.12

* * *

solubility values by entry
# Protocol Notes: Aqueous solubility of the compound
# Assay type: physicochemical
# Condition Set: buffer

In [3]: df
Out[3]:
                               query_smiles  observed
0  O=c1[nH]ccc2c3[nH]c(-c4ccccc4Cl)nc3c3ccc(F)cc3c12    < 2 µM

// returns reported solubility for input CCNc1ncc(C(N)=O)c2[nH]c3ccc(F)cc3c12 6 µM

* * *

# Protocol Notes: Oral bioavailability in rat at 2 mg/kg
# Type: ADME, organism-based
# Condition Set: in vivo
Assay Readout: bioavailability (%)
The reply should be a number in %, with the unit left off.

Use these answered entries as a reference point.
In [3]: df
Out[3]:
                           query_smiles  quantity_unit  observed
0  O=c1[nH]ccc2c1c1cc(F)ccc1n2-c1ccccc1              %        89
1  CCNc1ncc(C(N)=O)c2[nH]c3ccc(F)cc3c12              %        87

Now consider the entry below.
Endpoint output: bioavailability of NC(=O)c1cnc(N[C@H](C2CC2)C(F)(F)F)c2c1[nH]c1cc(-c3cnc(N)nc3)ccc12 . Value? 67

* * *

Consider compounds characterized by their pIC50 with Voltage-gated inwardly rectifying potassium channel KCNH2 (Homo sapiens).
Sequence (Q12809 whole entry): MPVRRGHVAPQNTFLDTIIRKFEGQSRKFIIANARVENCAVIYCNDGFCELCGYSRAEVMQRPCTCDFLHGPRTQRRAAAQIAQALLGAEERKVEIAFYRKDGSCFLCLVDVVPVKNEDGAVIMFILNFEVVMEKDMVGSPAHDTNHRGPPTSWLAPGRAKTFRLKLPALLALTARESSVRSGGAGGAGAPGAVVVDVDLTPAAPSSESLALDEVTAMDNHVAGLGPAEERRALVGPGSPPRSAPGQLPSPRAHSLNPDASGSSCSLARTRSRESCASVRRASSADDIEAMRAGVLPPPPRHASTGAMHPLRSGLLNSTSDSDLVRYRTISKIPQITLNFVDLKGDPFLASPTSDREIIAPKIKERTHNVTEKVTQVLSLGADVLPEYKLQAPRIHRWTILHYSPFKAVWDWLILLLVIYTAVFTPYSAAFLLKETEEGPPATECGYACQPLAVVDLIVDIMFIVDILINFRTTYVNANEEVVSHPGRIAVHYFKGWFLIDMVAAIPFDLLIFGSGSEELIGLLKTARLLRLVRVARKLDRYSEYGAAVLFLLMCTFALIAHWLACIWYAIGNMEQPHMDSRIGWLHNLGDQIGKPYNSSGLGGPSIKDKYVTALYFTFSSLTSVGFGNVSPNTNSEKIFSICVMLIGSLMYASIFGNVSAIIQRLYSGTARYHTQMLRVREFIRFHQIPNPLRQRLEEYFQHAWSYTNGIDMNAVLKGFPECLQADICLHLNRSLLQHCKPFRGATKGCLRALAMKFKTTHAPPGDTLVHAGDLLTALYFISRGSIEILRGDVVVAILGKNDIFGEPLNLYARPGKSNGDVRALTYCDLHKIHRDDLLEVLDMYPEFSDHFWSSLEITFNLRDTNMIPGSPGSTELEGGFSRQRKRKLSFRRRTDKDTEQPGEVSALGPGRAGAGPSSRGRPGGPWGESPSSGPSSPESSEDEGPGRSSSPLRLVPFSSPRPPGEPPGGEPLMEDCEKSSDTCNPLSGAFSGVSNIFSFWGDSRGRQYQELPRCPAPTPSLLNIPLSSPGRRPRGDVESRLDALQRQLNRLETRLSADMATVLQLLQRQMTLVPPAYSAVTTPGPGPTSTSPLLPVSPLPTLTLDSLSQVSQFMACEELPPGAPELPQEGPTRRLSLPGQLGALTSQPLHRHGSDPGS
To interpret pIC50, take it as minus log10 of a concentration measured in moles per litre.

In [3]: df
Out[3]:
                               query_smiles                           target_of_assay  observed
0  NC(=O)c1cnc(NC(C2CC2)C2CC2)c2c1[nH]c1cc(-c3cnc(N)nc3)ccc12  Voltage-gated inwardly rectifying potassium channel KCNH2 (Homo sapiens)      5.09

Fill in the blank: the reported pIC50 of C[C@H](Nc1ncc(C(N)=O)c2[nH]c3cc(-c4cnn(C)c4)ccc3c12)C(C)(C)C is ____. 4.54

# iterate: NC(=O)c1cnc(NC(C2CC2)C2CC2)c2c1[nH]c1cc(-c3cnc(N)cn3)ccc12 6.14

* * *

Parameter: logD. Scope: all listed entries.
# Protocol Notes: Lipophilicity, log D of the compound at pH 7.4
# Assay type: physicochemical
# Condition Set: buffer
Answer as a number with no unit attached.

                               query_smiles  assay_readout  observed
0  O=c1[nH]ccc2c3[nH]c(-c4ccccc4Cl)nc3c3ccc(F)cc3c12           logD       3.6

Tell me the measured logD of CCNc1ncc(C(N)=O)c2[nH]c3ccc(F)cc3c12 , please. 2

Same read-out for O=c1[nH]ccc2c1c1cc(F)ccc1n2-c1ccccc1 ? 4.3

* * *

# Target Of Assay: CYP2C9 (Homo sapiens)
# Sequence (P11712 whole entry): as the sequence (P11712 whole entry) above
# Protocol Notes: Inhibition of CYP2C9 at 10 uM
# Format: ADME
Assay Readout: inhibition at 10 µM (%)
Give your result in % as a bare value.

Here's what some known entries look like.
>>> df
                               query_smiles        target_of_assay  quantity_unit  observed
0  NC(=O)c1cnc(N[C@H](C2CC2)C(F)(F)F)c2c1[nH]c1cc(-c3cn[nH]c3)ccc12  CYP2C9 (Homo sapiens)              %        61
1  NC(=O)c1cnc(N[C@H](C2CC2)C(F)(F)F)c2c1[nH]c1cc(-c3cnc(N)nc3)ccc12  CYP2C9 (Homo sapiens)              %        34
2  NC(=O)c1cnc(NC(C2CC2)C2CC2)c2c1[nH]c1cc(-c3cnc(N)cn3)ccc12  CYP2C9 (Homo sapiens)              %        46
3  Cn1cc(-c2ccc3c(c2)[nH]c2c(C(N)=O)cnc(NC(C4CC4)C4CC4)c23)cn1  CYP2C9 (Homo sapiens)              %        80
4  Cn1cc(-c2ccc3c(c2)[nH]c2c(C(N)=O)cnc(N[C@H](C4CC4)C(F)(F)F)c23)cn1  CYP2C9 (Homo sapiens)              %        66

Fill in: inhibition at 10 µM of NC(=O)c1cnc(NC(C2CC2)C2CC2)c2c1[nH]c1cc(-c3cnc(N)nc3)ccc12 is ___ 35

# repeat for NC(=O)c1cnc(N[C@H](C2CC2)C(F)(F)F)c2c1[nH]c1cc(-c3ccc(N)nc3)ccc12 41

Also NC(=O)c1cnc(NC(C2CC2)C2CC2)c2c1[nH]c1cc(-c3cn[nH]c3)ccc12 , if possible. 80

* * *

# Tested on: Mus musculus
# Protocol Notes: Reduction in pSTAT5 concentration in po dosed darbepoetin-stimulated C57B1/6 mouse
Assay Readout: pIC50
When answering, recall that pIC50 equals minus log10 of the concentration in mol/L, and write that number alone.

Item NC(=O)c1cnc(N[C@H](C2CC2)C(F)(F)F)c2c1[nH]c1cc(-c3cnc(N)nc3)ccc12 with Mus musculus - pIC50? 5.92

* * *

# Target Of Assay: Tyrosine-protein kinase JAK2 (Homo sapiens, UniProt O60674)
# Sequence (O60674 whole entry): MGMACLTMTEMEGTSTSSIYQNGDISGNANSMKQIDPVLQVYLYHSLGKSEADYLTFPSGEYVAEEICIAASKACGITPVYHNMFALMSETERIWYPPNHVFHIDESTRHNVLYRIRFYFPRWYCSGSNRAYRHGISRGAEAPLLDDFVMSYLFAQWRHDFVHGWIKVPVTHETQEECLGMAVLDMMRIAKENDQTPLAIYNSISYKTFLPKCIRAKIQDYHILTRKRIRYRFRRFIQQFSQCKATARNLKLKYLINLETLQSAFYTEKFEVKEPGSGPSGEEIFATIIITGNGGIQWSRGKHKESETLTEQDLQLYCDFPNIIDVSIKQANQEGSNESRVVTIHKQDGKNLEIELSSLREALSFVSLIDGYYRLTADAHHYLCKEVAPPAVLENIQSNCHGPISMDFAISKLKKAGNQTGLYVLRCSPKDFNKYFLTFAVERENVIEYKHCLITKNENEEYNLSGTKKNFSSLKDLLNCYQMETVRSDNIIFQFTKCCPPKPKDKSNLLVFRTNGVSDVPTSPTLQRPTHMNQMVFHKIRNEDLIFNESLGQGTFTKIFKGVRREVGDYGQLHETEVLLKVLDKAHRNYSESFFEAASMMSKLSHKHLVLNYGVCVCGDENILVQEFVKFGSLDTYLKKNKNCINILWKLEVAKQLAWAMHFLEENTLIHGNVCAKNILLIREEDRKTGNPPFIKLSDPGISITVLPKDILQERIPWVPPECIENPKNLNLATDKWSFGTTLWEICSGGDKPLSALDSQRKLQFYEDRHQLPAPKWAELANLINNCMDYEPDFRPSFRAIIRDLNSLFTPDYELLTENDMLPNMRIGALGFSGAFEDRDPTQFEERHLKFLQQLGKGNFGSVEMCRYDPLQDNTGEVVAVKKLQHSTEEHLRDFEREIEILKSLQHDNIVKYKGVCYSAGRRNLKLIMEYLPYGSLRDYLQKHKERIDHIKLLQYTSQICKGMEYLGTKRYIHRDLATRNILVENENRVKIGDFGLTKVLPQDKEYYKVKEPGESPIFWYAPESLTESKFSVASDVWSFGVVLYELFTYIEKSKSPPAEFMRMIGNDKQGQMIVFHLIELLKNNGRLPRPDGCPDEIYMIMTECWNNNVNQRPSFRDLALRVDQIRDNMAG
# Protocol Notes: Inhibition of JAK2 using biotin-EQEDEPEGDYFEWLE- NH2 as substrate
Entries and their measured pIC50 follow.
pIC50 is defined as minus the log10 of a concentration measured in mol/L.

In [3]: df
Out[3]:
                               query_smiles  assay_readout  observed
0  NC(=O)c1cnc(NC2CCCCC2)c2c1[nH]c1cc(Cl)ccc12          pIC50      7.64
1  NC(=O)c1cnc(N[C@H](C2CC2)C(F)(F)F)c2c1[nH]c1cc(-c3cnc(N)nc3)ccc12          pIC50      9.10
2  CC(C)CNc1ncc(C(N)=O)c2[nH]c3ccc(F)cc3c12          pIC50      7.13
3  C[C@H](Nc1ncc(C(N)=O)c2[nH]c3cc(-c4cnn(C)c4)ccc3c12)C(C)(C)C          pIC50      8.30

Proceed to the following item.
What does the record list as pIC50 for NC(=O)c1cnc(NC(C2CC2)C2CC2)c2c1[nH]c1cc(-c3cnc(N)cn3)ccc12 ? 8.40

* * *

# Target Of Assay: UniProt:O60674
# Protocol Notes: Inhibition of JAK2 using biotin-EQEDEPEGDYFEWLE- NH2 as substrate
Assay Readout: IC50 (µM)
Answer in µM, number only, no unit symbol.

Solved cases (3 shown):
                               query_smiles  target_of_assay  assay_readout  observed
0  CC(C)Cn1cc(-c2ccc3c(c2)[nH]c2c(C(N)=O)cnc(N[C@@H](C)C(C)(C)C)c23)cn1   UniProt:O60674           IC50     0.041
1  NC(=O)c1cnc(NC(C2CC2)C2CC2)c2c1[nH]c1cc(-c3cnc(N)nc3)ccc12   UniProt:O60674           IC50     0.001
2   NC(=O)c1cnc(NC2CCCCC2)c2c1[nH]c1ccccc12   UniProt:O60674           IC50     0.059

Given the compound Cn1cc(-c2ccc3c(c2)[nH]c2c(C(N)=O)cnc(N[C@H](C4CCC4)C(F)(F)F)c23)cn1 , what is its reported IC50? 0.012

And the next one, C[C@H](Nc1ncc(C(N)=O)c2[nH]c3cc(-c4ccnc(N)n4)ccc3c12)C(C)(C)C ? 0.012

What do you have for NC(=O)c1cnc(NC2CCCCCC2)c2c1[nH]c1ccc(F)cc12 ? 0.019

Param item: NC(=O)c1cnc(NC2CCCCC2)c2c1[nH]c1cc(-c3cn[nH]c3)ccc12 0.013

What about this compound? C[C@H](Nc1ncc(C(N)=O)c2[nH]c3cc(-c4ccc(N)nn4)ccc3c12)C(C)(C)C 0.01

Next record, please: CCNc1ncc(C(N)=O)c2[nH]c3ccc(F)cc3c12 0.23
